Test: reversal of MRP1-mediated doxorubicin resistance, pilot screen, H69AR cells, doxorubicin co-treatment (AID 601)
Conditions: H69AR cells + 2 uM doxorubicin, CellTiter-Glo, 72 h; at 10 µM; stronger effect = higher value

- compound: "CC(C)(C)c1ccc2c(c1)OCC(C(=O)O)O2 (stereo not drawn)"
  scale.unit: "%"
  differential viability (reversal): 9.5
- compound: "CCCCCSc1nc2c(cnn2-c2ccccc2)c(=O)[nH]1"
  scale.unit: "%"
  differential viability (reversal): -3.82
- compound: "CNc1ccc(C(O)(C(F)(F)F)C(F)(F)F)cc1C(O)(C(F)(F)F)C(F)(F)F"
  scale.unit: "%"
  differential viability (reversal): -3.27
- compound: "NCCCCCc1nnc(SC/C=C/c2ccccc2)o1"
  scale.unit: "%"
  differential viability (reversal): 3.04
- compound: "CCOC(=O)c1cc(C(C)(C)C)oc1CN"
  scale.unit: "%"
  differential viability (reversal): -1.73
- compound: "COc1ccccc1NC(=O)N(Cc1ccco1)Cc1cc2c(C)ccc(C)c2[nH]c1=O"
  scale.unit: "%"
  differential viability (reversal): -28.8
- compound: "S=c1[nH]nc(COc2ccccc2)n1C1CCCCC1"
  scale.unit: "%"
  differential viability (reversal): 22.4
- compound: "Cc1ccc2nc(-c3ccc4c(c3)OCCO4)cc(C(=O)O)c2c1"
  scale.unit: "%"
  differential viability (reversal): 5.86
- compound: "CCC1(C)Cc2c(sc3nc(SCC(=O)O)[nH]c(=O)c23)CO1 (stereo not drawn)"
  scale.unit: "%"
  differential viability (reversal): 14.5
- compound: "Cc1ccc2cc(CN(Cc3ccc(F)cc3)Cc3nnnn3C3CCCC3)c(=O)[nH]c2c1"
  scale.unit: "%"
  differential viability (reversal): 4.34
- compound: "Cc1cc(C(F)(F)F)c2c(C)nn(CCc3nn[nH]n3)c2n1"
  scale.unit: "%"
  differential viability (reversal): -1.98
- compound: "CN(c1ccccc1C(=O)N1CCN(c2cccc(Cl)c2)CC1)S(C)(=O)=O"
  scale.unit: "%"
  differential viability (reversal): -0.775
- compound: "COCCNC(=O)NC(=O)COC(=O)Cc1ccc2c(c1)OCCO2"
  scale.unit: "%"
  differential viability (reversal): 6.6
- compound: "COc1cc(/C=N/n2c(C)nnc2C)cc(OC)c1OC"
  scale.unit: "%"
  differential viability (reversal): 19.3
- compound: "CC(C)(C)n1nnnc1C(c1cccc(C#N)c1)N1CCC(Cc2ccccc2)CC1 (stereo not drawn)"
  scale.unit: "%"
  differential viability (reversal): -0.44
- compound: "Nc1cc(N)nc(SCc2ccccc2)n1"
  scale.unit: "%"
  differential viability (reversal): -6.86
- compound: "CCOC(=O)C1CCN(C(=O)Nc2ccc3snnc3c2)CC1"
  scale.unit: "%"
  differential viability (reversal): 5.87
- compound: "COc1cc(C2c3c(oc4c(C)cc(C)cc4c3=O)C(=O)N2Cc2cccnc2)ccc1O (stereo not drawn)"
  scale.unit: "%"
  differential viability (reversal): 2.59
- compound: "CCN(C(=O)CN1CCN(c2ccccc2OC)CC1)c1c(N)n(Cc2ccccc2)c(=O)[nH]c1=O"
  scale.unit: "%"
  differential viability (reversal): 9.64
- compound: "CCN(CC)CCN1C(=O)C(O)=C(C(=O)c2cccs2)C1c1ccc(C)o1 (stereo not drawn)"
  scale.unit: "%"
  differential viability (reversal): 5.08
- compound: "CCOc1ccc(OCC)c(NC(=O)C2CCN(S(=O)(=O)c3cnc[nH]3)CC2)c1"
  scale.unit: "%"
  differential viability (reversal): 11.1
- compound: "COc1ccc2c(c1)c1c(n2C(C)=O)C(OC(C)=O)=NCC1"
  scale.unit: "%"
  differential viability (reversal): -0.05
- compound: "COC(=O)Cn1c(=O)c2c(nc(Br)n2CC(=O)OC)n(C)c1=O"
  scale.unit: "%"
  differential viability (reversal): 6.83

----------
Test: SK-BR-3 cell growth inhibitors, pilot screen, 24 h, human (AID 572);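 also: compound exposure lasted between 18 and 24 h rather than exactly 24 h; 100% = carrier-treated control wells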
Details: SK-BR-3 viability, CellTiter-Glo luminescence, at 10 µM, stronger effect = lower value
Documented viability across a set of molecules
experimental.readout: viability (%)

- molecule: "CC(C)N(O)C(=O)NC(C)(C)C"
  experimental.readout: "viability"
  scale.unit: "%"
  obs.value: 110
- molecule: "CNC(=O)NCCN1CCCC1=O"
  experimental.readout: "viability"
  scale.unit: "%"
  obs.value: 110
- molecule: "C(#Cc1ccccc1)Cn1nnc2ccccc21"
  experimental.readout: "viability"
  scale.unit: "%"
  obs.value: 80.5
- molecule: "CCC1CCCCN1CCCNC(=O)c1ccc(CS(=O)(=O)Cc2ccccc2F)o1 (stereo not drawn)"
  experimental.readout: "viability"
  scale.unit: "%"
  obs.value: 106
- molecule: "Cc1ccc(C)c2[nH]c(=O)c(CCNC(=O)c3ccc(Br)o3)cc12"
  experimental.readout: "viability"
  scale.unit: "%"
  obs.value: 87
- molecule: "CC(Oc1ccccc1)C(=O)Nc1ccc(S(=O)(=O)NCC2CCCO2)cc1 (stereo not drawn)"
  experimental.readout: "viability"
  scale.unit: "%"
  obs.value: 89.5
- molecule: "CS(=O)(=O)N(CC(=O)N1CCc2ccccc2C1)c1ccc2c(c1)OCO2"
  experimental.readout: "viability"
  scale.unit: "%"
  obs.value: 129
- molecule: "Fc1cccc2sc(Nc3nnc(-c4ccco4)o3)nc12"
  experimental.readout: "viability"
  scale.unit: "%"
  obs.value: 109
- molecule: "CCOC(=O)N1CCC(NC(=O)C2CCCN2C(=O)OCc2ccccc2)CC1 (stereo not drawn)"
  experimental.readout: "viability"
  scale.unit: "%"
  obs.value: 93
- molecule: "Cc1cccc(-n2ncc3c(NCc4cccs4)ncnc32)c1"
  experimental.readout: "viability"
  scale.unit: "%"
  obs.value: 64
- molecule: "CC(=O)[C@H]1[C@H](C#N)C[C@H]2[C@@H]3CC=C4C[C@@H](O)CC[C@]4(C)[C@H]3CC[C@@]21C"
  experimental.readout: "viability"
  scale.unit: "%"
  obs.value: 136
- molecule: "CCOC(=O)CSc1nnc(CNC(=O)c2cccs2)n1-c1cc(OC)ccc1OC"
  experimental.readout: "viability"
  scale.unit: "%"
  obs.value: 96.5
- molecule: "CCOc1ccccc1N1CCN(C(=O)c2ccncc2)CC1"
  experimental.readout: "viability"
  scale.unit: "%"
  obs.value: 97
- molecule: "Cc1c(NC(=O)c2coc(=O)c(Br)c2)c(=O)n(-c2ccccc2)n1C"
  experimental.readout: "viability"
  scale.unit: "%"
  obs.value: 85
- molecule: "O=C(c1ccco1)N1CCN(CCCCN2C(=O)c3ccccc3C2=O)CC1"
  experimental.readout: "viability"
  scale.unit: "%"
  obs.value: 102
- molecule: "COc1ccccc1C(=O)N1CCCC(c2nc(-c3cc(OC)c(OC)c(OC)c3)no2)C1 (stereo not drawn)"
  experimental.readout: "viability"
  scale.unit: "%"
  obs.value: 120
- molecule: "COC(=O)CSc1nnc(CSc2nc(C)cc(C)n2)n1Cc1ccco1"
  experimental.readout: "viability"
  scale.unit: "%"
  obs.value: 81
- molecule: "O=C1c2ccccc2C(=O)N1CCCn1nnc(-c2ccc(N3CCOCC3)cc2)n1"
  experimental.readout: "viability"
  scale.unit: "%"
  obs.value: 110
- molecule: "O=C(COC(=O)CCC1CCCC1)Nc1ccc(Cl)cn1"
  experimental.readout: "viability"
  scale.unit: "%"
  obs.value: 107
- molecule: "O=C(NCc1ccco1)c1ccccc1Nc1ccc(F)cc1"
  experimental.readout: "viability"
  scale.unit: "%"
  obs.value: 80
- molecule: "CC1(C)CC(=O)c2sc(NS(C)(=O)=O)nc2C1"
  experimental.readout: "viability"
  scale.unit: "%"
  obs.value: 119
- molecule: "CCn1c(=O)cc(SCC(=O)Nc2ccc3c(c2)OCO3)c2ccccc21"
  experimental.readout: "viability"
  scale.unit: "%"
  obs.value: 97
- molecule: "O=C(Nc1ccccc1C(=O)O)c1cccc(NC(=O)c2ccc(Br)o2)c1"
  experimental.readout: "viability"
  scale.unit: "%"
  obs.value: 91

----------
Documented inhibition across a set of compounds
Experiment: growth suppression of yeast trafficking mutant, preliminary HTS, modulators of trafficking downstream of Golgi apparatus project, 1536-format plate, OD 615 nm (AID 637)
Details: yeast transport mutant growth, absorbance 615 nm, 18 h; stronger effect = higher value
experimental.readout: inhibition (%)

- compound: "CCN(C(=O)c1c(OC)cccc1OC)c1nnc(-c2cccnc2)s1"
  obs.value: -7.82
- compound: "CN=C(C)C1=C(O)C(C(=O)OC)C(C)(C)CC1=O (configuration not stated)"
  obs.value: 2.7
- compound: "O=C1c2ccccc2C(=O)N1c1cccc(-c2nc3ccccc3o2)c1"
  obs.value: -3.09
- compound: "COc1ccccc1-c1nnc(SCC(=O)N2CC(C)CC(C)C2)o1 (configuration not stated)"
  obs.value: -5
- compound: "COCCNC(=O)CN1CCC(NC(=O)Nc2ccc(C(F)(F)F)cc2)CC1"
  obs.value: 0.55
- compound: "CCCc1cc(Nc2cccc(OC)c2)n2ncnc2n1"
  obs.value: -5
- compound: "CCn1c2ccccc2c2cc(N)ccc21"
  obs.value: 1.59
- compound: "O=C(CP(=O)(c1ccccc1)c1ccccc1)N1CCCCC1"
  obs.value: 6.83
- compound: "CCOc1ccccc1C(=O)Nn1c(C2CCC2)nc2ccccc2c1=O"
  obs.value: 2.55
- compound: "CCOC(=O)CN1CC23C=CC(O2)C(C(=O)NCc2ccc(F)cc2)C3C1=O (configuration not stated)"
  obs.value: -0.17
- compound: "O=S(=O)(c1ccc2c(c1)OCCO2)N(Cc1ccc(F)cc1)Cc1nnc(-c2cccs2)o1"
  obs.value: 0.79
- compound: "CCOC(=O)Cc1csc(NC(=O)CSc2nnc(-c3ccncc3)n2Cc2ccco2)n1"
  obs.value: 5.24
- compound: "O=C(Nc1nccs1)c1ccc(Cl)c(S(=O)(=O)N2CCCCC2)c1"
  obs.value: 3.83
- compound: "c1ccc(-c2nc3cnccn3c2Nc2ccc3c(c2)OCCO3)cc1"
  obs.value: -1.27
- compound: "O=C(NC1CCCCCC1)C1CCCN(S(=O)(=O)c2cccs2)C1 (configuration not stated)"
  obs.value: -6.5
- compound: "O=C(Nc1ccc(N2CCOCC2)cc1)Nc1ccc2nc(-c3ccco3)c(-c3ccco3)nc2c1"
  obs.value: -1.45
- compound: "CCOC(=O)c1ccc2[nH]c3c(c2c1)CCCCC3=O"
  obs.value: -0.73
- compound: "C[C@]12CCC(=O)C=C1CC[C@@H]1[C@@H]2[C@@H](O)C[C@@]2(C)[C@H]1CC[C@]2(O)C(=O)CO"
  obs.value: -3.83
- compound: "CCOC(=O)C1CCN(CC(=O)Nc2c(C(=O)OC)[nH]c3ccc(Cl)cc23)CC1"
  obs.value: 3.09
- compound: "CCOC(=O)c1[nH]c(CSc2nnc(-c3ccncc3)n2CCOC)c(C(=O)OCC)c1C"
  obs.value: 1.31
- compound: "O=C(CN1CCN(c2ncc(C(F)(F)F)cc2Cl)CC1)Nc1ccc2c(c1)OCO2"
  obs.value: -4.29
- compound: "CC(=O)Nc1c(C(=O)O)[nH]c2ccccc12"
  obs.value: -8.36

These data points were gathered from PubChem BioAssay.
